B1: C22orf15 (parent)
chain: PRGRAHLLPNPYQQDFLGLPEELR

Variants of: B1
test-protocol: protein stability index of a GFP-peptide fusion (GPS, HEK-293T) (PSI 1-6); higher = more stable;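 also: lentivirally expressed fusions sorted by FACS into six bins by GFP to DsRed ratio, PSI derived from sequencing read proportions per bin multiplied by bin number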
condition-set: c terminus: a fixed tail appended
Classify by measured protein stability index: satisfied if it is equal to or exceeds 4, not satisfied if it is smaller.

Determine whether measured protein stability index meets or exceeds 4 for PWGRAHLLPNPYQQDFLGLPEELR [R2W]
not satisfied

Determine whether measured protein stability index meets or exceeds 4 for PRGRAHLLPNPYQQDFLGLPEEHR [L23H]
satisfied

Determine whether measured protein stability index meets or exceeds 4 for PRGRAHLLPNPDQQDFLGLPEELR [Y12D]
satisfied

Determine whether measured protein stability index meets or exceeds 4 for PRGMAHLLPNPYQQDFLGLPEELR [R4M]
not satisfied

Determine whether measured protein stability index meets or exceeds 4 for PRGRAHLLPNPYQQDFYGLPEELR [L17Y]
not satisfied

Determine whether measured protein stability index meets or exceeds 4 for PRGRAHLLNNPYQQDFLGLPEELR [P9N]
not satisfied

Determine whether measured protein stability index meets or exceeds 4 for PRGRAHLLPNPYQQDFLGLPERLR [E22R]
not satisfied

Determine whether measured protein stability index meets or exceeds 4 for PRGRAHLLPNPYQQDFLGLPEELW [R24W]
not satisfied

Determine whether measured protein stability index meets or exceeds 4 for PRGRAHILPNPYQQDFLGLPEELR [L7I]
not satisfied

Determine whether measured protein stability index meets or exceeds 4 for PRGRADLLPNPYQQDFLGLPEELR [H6D]
satisfied

Determine whether measured protein stability index meets or exceeds 4 for PRGRAHLLPNPYQQDFLGLPVELR [E21V]
not satisfied

Determine whether measured protein stability index meets or exceeds 4 for PRGRCHLLPNPYQQDFLGLPEELR [A5C]
not satisfied

Determine whether measured protein stability index meets or exceeds 4 for PRGRAHLLPNNYQQDFLGLPEELR [P11N]
satisfied

Determine whether measured protein stability index meets or exceeds 4 for PRGRAHLLPNPYQQDFLGLAEELR [P20A]
not satisfied

Determine whether measured protein stability index meets or exceeds 4 for PKGRAHLLPNPYQQDFLGLPEELR [R2K]
not satisfied

Determine whether measured protein stability index meets or exceeds 4 for PRGRAHELPNPYQQDFLGLPEELR [L7E]
satisfied

Determine whether measured protein stability index meets or exceeds 4 for PRGRAHLLPNPYQQDGLGLPEELR [F16G]
satisfied

Determine whether measured protein stability index meets or exceeds 4 for PRGRAHLLPNPYQQDFLGLPMELR [E21M]
not satisfied

Determine whether measured protein stability index meets or exceeds 4 for PRGRAHLLPNPYQQDFLGLPQELR [E21Q]
not satisfied
